- Target Under Test: CYP3A4 (Homo sapiens, UniProt P08684)
- Sequence (P08684 whole entry): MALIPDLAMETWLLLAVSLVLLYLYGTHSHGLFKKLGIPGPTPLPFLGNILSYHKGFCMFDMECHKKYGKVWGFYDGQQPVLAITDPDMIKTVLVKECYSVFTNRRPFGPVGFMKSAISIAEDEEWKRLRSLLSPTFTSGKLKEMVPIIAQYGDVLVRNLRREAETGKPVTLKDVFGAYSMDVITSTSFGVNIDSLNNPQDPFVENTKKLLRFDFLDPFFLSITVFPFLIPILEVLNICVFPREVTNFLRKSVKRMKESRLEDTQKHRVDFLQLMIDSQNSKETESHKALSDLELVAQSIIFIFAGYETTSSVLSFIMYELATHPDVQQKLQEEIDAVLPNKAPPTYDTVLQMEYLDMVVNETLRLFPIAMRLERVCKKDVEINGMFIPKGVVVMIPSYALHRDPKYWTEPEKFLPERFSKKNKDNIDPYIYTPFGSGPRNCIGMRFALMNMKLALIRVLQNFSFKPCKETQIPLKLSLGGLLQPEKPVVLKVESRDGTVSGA
- Assay Procedure: microsomal CYP3A4 activity assay (human hepatic microsomes)
- Type: in vitro ADME
- Parameters: human hepatic microsomes (Gibco, Biocenter, Szeged, Hungary); tissue Gibco (Biocenter, Szeged, Hungary); host or cells: human liver microsomes
- Condition Info: human, at 100 µM, read-out: CYP3A4 inhibitory activities

[
  {
    "Molecule": "CC(C)(C)[C@H](NC(=O)[C@H](CCONC(=N)N)NC(=O)Cc1ccc(CNC(=N)N)cc1)C(=O)N[C@@H](CCONC(=N)N)C(=O)NCc1ccc(C(=N)N)cc1 [MI-1851]",
    "Target Under Test": "CYP3A4 (Homo sapiens, UniProt P08684)",
    "inhibition at 100 µM": "30 to 50%"
  },
  {
    "Molecule": "CC(C)(C)[C@H](NC(=O)[C@H](CCONC(=N)N)NC(=O)Cc1ccc(CNC(=N)N)cc1)C(=O)N[C@@H](CCONC(=N)N)C(=O)NCc1ccc2c(c1)CN=C2N [MI-2415]",
    "Target Under Test": "CYP3A4 (Homo sapiens, UniProt P08684)",
    "inhibition at 100 µM": "30 to 50%"
  }
]
